System: Rattus norvegicus
Test: Hypoglycemic activity in iv dosed rat measured after 1 hr by GOD-Perid method
Format: functional
The following molecules are shown together with reported log10 of ED50 values.
Answers are given as log10 of ED50 in mg/kg.

These solved cases illustrate the format of a correct answer.
molecule="COc1ccc(F)cc1[C@H](C)NC(=O)Cc1ccc(S(=O)(=O)Nc2ncc(CC(C)C)cn2)cc1 [GLIFLUMIDE]" measured_endpoint="log10 of ED50" observed_value=-1.70
molecule=COCCOc1cnc(NS(=O)(=O)c2ccccc2)nc1 measured_endpoint="log10 of ED50" observed_value=1.84
molecule=COc1ccc(F)cc1[C@@H](C)NC(=O)Cc1ccc(S(=O)(=O)Nc2ncc(CC(C)C)cn2)cc1 measured_endpoint="log10 of ED50" observed_value=-0.09
molecule=COc1ccc(F)cc1[C@H](C)NC(=O)Cc1ccc(C(=O)O)cc1 measured_endpoint="log10 of ED50" observed_value=1.81

// next entry
Query string: Looking for the measured log10 of ED50 of COc1ccc(F)cc1[C@@H](C)NC(=O)Cc1ccc(C(=O)O)cc1 , can you help?
Result string: 3.07
